pKd: recorded values
system-tested: T1, AFP158/HLA-A*02:01 complex (human)
T1 construct: biotinylated on the BSP by BirA for ELISA and panning; also called biotinylated AFP158/HLA-A*02:01 complex; Bio-AFP158
experiment-description: SPR, crude scFv captured;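 note: Peptide–MHC complex flowed at several concentrations over sensorchip-captured scFv, Kd derived from on- and off-rates obtained from the association and dissociation curves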
pKd: −log10 of the molar value.

[
  {
    "binder": "AS170036 VL1VH1 HD102T (scFv) scFv: QSALTQPRSVSGSPGQSVTISCAGTSSDVGSENYVSWYQQHPGKAPKLMIYQVNKRASGVPDRFSGSKSGNTASLTISGLQAEDEADYYCASYRSSDHNIVFGGGTKLTVLGGGGSGGGGSGGGGSEVQLVESGGGLVQPGGSLRLSCAASGFTFSSYAMSWVRQAPGKGLEWVSTINSGTGSPYYADSVKGRFTISRDNSKNTLYLQMNSLRAEDTAVYYCAKNFFTGSWFLGPPAMDYWGQGTLVTVSSHHHHHH",
    "pKd": 5.74
  },
  {
    "binder": "AS170036 VL1VH1 HP110Q (scFv) scFv: QSALTQPRSVSGSPGQSVTISCAGTSSDVGSENYVSWYQQHPGKAPKLMIYQVNKRASGVPDRFSGSKSGNTASLTISGLQAEDEADYYCASYRSSDHNIVFGGGTKLTVLGGGGSGGGGSGGGGSEVQLVESGGGLVQPGGSLRLSCAASGFTFSSYAMSWVRQAPGKGLEWVSTINSGTGSPYYADSVKGRFTISRDNSKNTLYLQMNSLRAEDTAVYYCAKNFFDGSWFLGPQAMDYWGQGTLVTVSSHHHHHH",
    "pKd": 6.52
  },
  {
    "binder": "AS170036 VL1VH1 HG56E (scFv) scFv: QSALTQPRSVSGSPGQSVTISCAGTSSDVGSENYVSWYQQHPGKAPKLMIYQVNKRASGVPDRFSGSKSGNTASLTISGLQAEDEADYYCASYRSSDHNIVFGGGTKLTVLGGGGSGGGGSGGGGSEVQLVESGGGLVQPGGSLRLSCAASGFTFSSYAMSWVRQAPGKGLEWVSTINSGTESPYYADSVKGRFTISRDNSKNTLYLQMNSLRAEDTAVYYCAKNFFDGSWFLGPPAMDYWGQGTLVTVSSHHHHHH",
    "pKd": 6.62
  }
]

src = patent US20240279318A1
